- target-of-assay: Macrophage metalloelastase (Homo sapiens, UniProt P39900, V97L)
- Sequence (P39900 whole entry V97L, the tested form may be a part): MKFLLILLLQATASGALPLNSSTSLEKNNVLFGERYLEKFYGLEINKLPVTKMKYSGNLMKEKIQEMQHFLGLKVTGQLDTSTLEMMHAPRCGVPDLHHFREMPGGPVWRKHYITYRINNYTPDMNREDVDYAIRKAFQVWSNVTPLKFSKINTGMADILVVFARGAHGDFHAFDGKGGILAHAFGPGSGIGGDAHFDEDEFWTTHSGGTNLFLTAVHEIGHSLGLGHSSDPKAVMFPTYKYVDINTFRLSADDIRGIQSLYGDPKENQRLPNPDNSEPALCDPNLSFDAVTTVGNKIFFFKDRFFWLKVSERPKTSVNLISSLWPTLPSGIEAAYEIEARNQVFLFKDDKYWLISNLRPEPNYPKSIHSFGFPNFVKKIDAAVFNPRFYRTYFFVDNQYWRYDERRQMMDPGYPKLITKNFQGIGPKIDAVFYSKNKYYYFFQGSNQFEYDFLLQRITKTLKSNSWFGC
- assay-details: Inhibition of human recombinant MMP-12 (17 to 470 residues) Val97Leu mutant expressed in NS0 cells using (7-methoxycoumarin-4-y1)-acetyl-Pro-Leu-Gly-Leu-[3-(2,4-dinitropheny1)-L-2,3-diaminopropionyl]-Ala-Arg-NH2 as substrate preincubated with enzyme for 30 mins followed by substrate addition and measured after 10 mins by fluorescence based analysis
measurement-name: IC50 (nM)
Write the number in nM without appending the unit.

>>> observed("CCCCN([C@@H](C(=O)O)C(C)C)S(=O)(=O)c1ccc(-c2nc(-c3ccc(C)s3)no2)cc1")
105

Req: Give its IC50 value. Item: CC(C)[C@@H](NS(=O)(=O)c1ccc(-c2nc(-c3ccc(Cn4cc(CCCF)nn4)s3)no2)cc1)C(=O)O
Resp: 13

Req: Lookup CCCN([C@@H](C(=O)O)C(C)C)S(=O)(=O)c1ccc(-c2nc(-c3ccc(C)s3)no2)cc1
Resp: 26

Req: How about CCCCCCN([C@@H](C(=O)O)C(C)C)S(=O)(=O)c1ccc(-c2nc(-c3ccc(C)s3)no2)cc1 ?
Resp: 527

Req: What do you have for CCCCCN([C@@H](C(=O)O)C(C)C)S(=O)(=O)c1ccc(-c2nc(-c3ccc(C)s3)no2)cc1 ?
Resp: 162

Req: Follow-up item: Cc1ccc(-c2noc(-c3ccc(S(=O)(=O)N(CCCC(F)(F)F)[C@@H](C(=O)O)C(C)C)cc3)n2)s1
Resp: 164

Req: And then Cc1ccc(-c2noc(-c3ccc(S(=O)(=O)N(C)[C@@H](C(=O)O)C(C)C)cc3)n2)s1 , what is it?
Resp: 37

Req: Now consider Cc1ccc(-c2noc(-c3ccc(S(=O)(=O)N[C@@H](C(=O)O)C(C)C)cc3)n2)s1 .
Resp: 14

Req: Now the molecule Cc1ccc(-c2noc(-c3ccc(S(=O)(=O)N(CCCCF)[C@@H](C(=O)O)C(C)C)cc3)n2)s1
Resp: 41

====

- target-of-assay: Neutrophil collagenase (Homo sapiens, UniProt P22894)
- Sequence (P22894 whole entry, the tested form may be a part): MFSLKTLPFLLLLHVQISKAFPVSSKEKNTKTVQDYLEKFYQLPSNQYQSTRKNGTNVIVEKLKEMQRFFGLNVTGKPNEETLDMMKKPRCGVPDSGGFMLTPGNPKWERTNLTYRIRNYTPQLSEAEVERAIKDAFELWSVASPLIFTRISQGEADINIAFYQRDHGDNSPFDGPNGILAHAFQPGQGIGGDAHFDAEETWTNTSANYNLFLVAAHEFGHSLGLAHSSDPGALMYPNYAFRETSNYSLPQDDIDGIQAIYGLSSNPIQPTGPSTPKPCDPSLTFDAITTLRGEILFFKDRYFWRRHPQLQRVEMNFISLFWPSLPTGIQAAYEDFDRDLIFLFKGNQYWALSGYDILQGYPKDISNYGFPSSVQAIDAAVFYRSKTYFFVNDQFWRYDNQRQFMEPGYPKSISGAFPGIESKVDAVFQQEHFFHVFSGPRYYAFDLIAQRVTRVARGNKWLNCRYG
- assay-details: Inhibition of human recombinant MMP-8 (21 to 467 residues) expressed in NS0 cells using (7-methoxycoumarin-4-y1)-acetyl-Pro-Leu-Gly-Leu-[3-(2,4-dinitropheny1)-L-2,3-diaminopropionyl]-Ala-Arg-NH2 as substrate preincubated with enzyme for 30 mins followed by substrate addition and measured after 10 mins by fluorescence based analysis
In plain terms, low IC50, meaning strictly below 30 nM, gives T, and everything else gives F.

Known results for compounds:
>>> label_value("Cc1ccc(-c2noc(-c3ccc(S(=O)(=O)N[C@@H](C(=O)O)C(C)C)cc3)n2)s1")
"T"
>>> label_value("CCCCCCCCCCCCCCCCN([C@@H](C(=O)O)C(C)C)S(=O)(=O)c1ccc(-c2nc(-c3ccc(C)s3)no2)cc1")
"F"
>>> label_value("Cc1ccc(-c2noc(-c3ccc(S(=O)(=O)N(CCF)[C@@H](C(=O)O)C(C)C)cc3)n2)s1")
"F"
>>> label_value("CCCCCCN([C@@H](C(=O)O)C(C)C)S(=O)(=O)c1ccc(-c2nc(-c3ccc(C)s3)no2)cc1")
"F"
>>> label_value("CCCCCN([C@@H](C(=O)O)C(C)C)S(=O)(=O)c1ccc(-c2nc(-c3ccc(C)s3)no2)cc1")
"F"

Req: Take the compound Cc1ccc(-c2noc(-c3ccc(S(=O)(=O)N(CCCCF)[C@@H](C(=O)O)C(C)C)cc3)n2)s1 and say whether its IC50 is less than 30 nM.
Resp: F

Req: And CC(C)[C@@H](NS(=O)(=O)c1ccc(-c2nc(-c3ccc(Cn4cc(CCCF)nn4)s3)no2)cc1)C(=O)O ?
Resp: T

Req: Now give it for Cc1ccc(-c2noc(-c3ccc(S(=O)(=O)N(C)[C@@H](C(=O)O)C(C)C)cc3)n2)s1 too.
Resp: T
